Test: Ascites case: plasma and ascites pharmacokinetics
Format: in vivo, human
Conditions: male, human, ascites and plasma, oral
measureName: Kp
Respond using a number only.

According to the records, this compound C[C@]1(c2nc3c(C(N)=O)cccc3[nH]2)CCCN1 displays Kp of 0.62

* * *

Test: Veliparib plasma pharmacokinetics, cycle 1
Format: in vivo, human
Conditions: human, plasma, oral, 40 mg, AUC0–8, Day -2; veliparib dose 40 mg (N=3)
measureName: AUC(0-t) (ng·h/mL)
The reply should be a number in ng·h/mL, with the unit left off.

Per the record, C[C@]1(c2nc3c(C(N)=O)cccc3[nH]2)CCCN1 has AUC(0-t) of 1430
